In this section, each of the compounds is paired with its reported pKi.
biological target: 5-HT1 receptor; assay: Affinity for the 5-HT1 receptor (receptor-bonding, 3H-serotonin, calf hippocampus membranes); details: calf hippocampus membrane preparations, 3H-serotonin as radioligand
Structures can show the parent of a compound that is named as a salt.
Scale: negative log10 of molar concentration, which is what pKi denotes.

OC1(c2ccc(Cl)cc2)CCN(CC2CCc3ccccc3O2)CC1 (centres unmarked) [Example 4]    7.12

Okay, next one:
Look up pKi for this compound: COc1cccc2c1OC(CN1CCC(O)(c3ccc(Cl)cc3)CC1)CC2 (centres unmarked) [Example 1, hydrochloride]
7.66

====

pKi tested on 5-HT1A receptor (Bos taurus): recorded values
Sequence (F6Q2H9 1-422): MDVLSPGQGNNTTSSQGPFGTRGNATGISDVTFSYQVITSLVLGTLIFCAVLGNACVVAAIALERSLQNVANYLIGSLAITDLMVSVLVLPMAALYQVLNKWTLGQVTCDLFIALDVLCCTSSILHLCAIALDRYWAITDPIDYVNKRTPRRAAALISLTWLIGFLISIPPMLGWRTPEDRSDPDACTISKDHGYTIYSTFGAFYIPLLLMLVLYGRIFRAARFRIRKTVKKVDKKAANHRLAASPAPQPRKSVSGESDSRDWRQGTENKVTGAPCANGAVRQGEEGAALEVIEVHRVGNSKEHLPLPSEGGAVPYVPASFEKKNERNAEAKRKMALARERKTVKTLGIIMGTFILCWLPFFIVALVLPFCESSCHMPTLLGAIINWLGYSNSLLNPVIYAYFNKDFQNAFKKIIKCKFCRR
Scale: negative log10 of molar concentration, which is what pKi denotes.

COc1cccc2c1OC(CN1CCC(O)(c3cccc(C(F)(F)F)c3)CC1)CC2 (centres unmarked) [Example 9]    8.22

Okay, next one:
Tell me reported pKi for COc1cccc2c1OC(CN1CCC(c3ccccc3)(c3ccccc3)CC1)CC2 (centres unmarked) [Example 5] , tested with 5-HT1A receptor (Bos taurus).
8.00
